Hello, the source for this data is patent US20240279318A1, in case you need it.

System name: T1, AFP158/HLA-A*02:01 complex (human)
T1 construct: flowed as analyte in SPR
Experiment summary: SPR, fold vs AS170036 VL1VH1;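 further: crude scFv muteins immobilised on a sensor chip, peptide–MHC complex passed over at several concentrations, binding then buffer-driven dissociation, KD estimated from on- and off-rates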
Lab note: compare Affinity increase against 20 fold. Equal or greater, write true (1). Smaller, write false (0).

Worked cases, answers included:
AS170036 VL1VH1-98Q108D (scFv, also called 38-AS170036 VL1VH1-98Q108D) scFv: QSALTQPRSVSGSPGQSVTISCAGTSSDVGSENYVSWYQQHPGKAPKLMIYQVNKRASGVPDRFSGSKSGNTASLTISGLQAEDEADYYCASYRSSDQNIVFGGGTKLTVLGGGGSGGGGSGGGGSEVQLVESGGGLVQPGGSLRLSCAASGFTFSSYAMSWVRQAPGKGLEWVSTINSGTGSPYYADSVKGRFTISRDNSKNTLYLQMNSLRAEDTAVYYCAKNFFDGSWFLDPPAMDYWGQGTLVTVSSHHHHHH ... false (0)
AS170036 VL1VH1-57K108D (scFv, also called 26-AS170036 VL1VH1-57K108D) scFv: QSALTQPRSVSGSPGQSVTISCAGTSSDVGSENYVSWYQQHPGKAPKLMIYQVNKRASGVPDRFSGSKSGNTASLTISGLQAEDEADYYCASYRSSDHNIVFGGGTKLTVLGGGGSGGGGSGGGGSEVQLVESGGGLVQPGGSLRLSCAASGFTFSSYAMSWVRQAPGKGLEWVSTINSGTGKPYYADSVKGRFTISRDNSKNTLYLQMNSLRAEDTAVYYCAKNFFDGSWFLDPPAMDYWGQGTLVTVSSHHHHHH ... false (0)
AS170036 VL1VH1-57M108A (scFv, also called 28-AS170036 VL1VH1-57M108A) scFv: QSALTQPRSVSGSPGQSVTISCAGTSSDVGSENYVSWYQQHPGKAPKLMIYQVNKRASGVPDRFSGSKSGNTASLTISGLQAEDEADYYCASYRSSDHNIVFGGGTKLTVLGGGGSGGGGSGGGGSEVQLVESGGGLVQPGGSLRLSCAASGFTFSSYAMSWVRQAPGKGLEWVSTINSGTGMPYYADSVKGRFTISRDNSKNTLYLQMNSLRAEDTAVYYCAKNFFDGSWFLAPPAMDYWGQGTLVTVSSHHHHHH ... false (0)
AS170036 VL1VH1-57H98F (scFv, also called 07-AS170036 VL1VH1-57H98F) scFv: QSALTQPRSVSGSPGQSVTISCAGTSSDVGSENYVSWYQQHPGKAPKLMIYQVNKRASGVPDRFSGSKSGNTASLTISGLQAEDEADYYCASYRSSDFNIVFGGGTKLTVLGGGGSGGGGSGGGGSEVQLVESGGGLVQPGGSLRLSCAASGFTFSSYAMSWVRQAPGKGLEWVSTINSGTGHPYYADSVKGRFTISRDNSKNTLYLQMNSLRAEDTAVYYCAKNFFDGSWFLGPPAMDYWGQGTLVTVSSHHHHHH ... true (1)
AS170036 VL1VH1-56Y98F (scFv, also called 01-AS170036 VL1VH1-56Y98F) scFv: QSALTQPRSVSGSPGQSVTISCAGTSSDVGSENYVSWYQQHPGKAPKLMIYQVNKRASGVPDRFSGSKSGNTASLTISGLQAEDEADYYCASYRSSDFNIVFGGGTKLTVLGGGGSGGGGSGGGGSEVQLVESGGGLVQPGGSLRLSCAASGFTFSSYAMSWVRQAPGKGLEWVSTINSGTYSPYYADSVKGRFTISRDNSKNTLYLQMNSLRAEDTAVYYCAKNFFDGSWFLGPPAMDYWGQGTLVTVSSHHHHHH ... true (1)
AS170036 VL1VH1-98F108S (scFv, also called 33-AS170036 VL1VH1-98F108S) scFv: QSALTQPRSVSGSPGQSVTISCAGTSSDVGSENYVSWYQQHPGKAPKLMIYQVNKRASGVPDRFSGSKSGNTASLTISGLQAEDEADYYCASYRSSDFNIVFGGGTKLTVLGGGGSGGGGSGGGGSEVQLVESGGGLVQPGGSLRLSCAASGFTFSSYAMSWVRQAPGKGLEWVSTINSGTGSPYYADSVKGRFTISRDNSKNTLYLQMNSLRAEDTAVYYCAKNFFDGSWFLSPPAMDYWGQGTLVTVSSHHHHHH ... false (0)
AS170036 VL1VH1-56Y108D (scFv, also called 17-AS170036 VL1VH1-56Y108D) scFv: QSALTQPRSVSGSPGQSVTISCAGTSSDVGSENYVSWYQQHPGKAPKLMIYQVNKRASGVPDRFSGSKSGNTASLTISGLQAEDEADYYCASYRSSDHNIVFGGGTKLTVLGGGGSGGGGSGGGGSEVQLVESGGGLVQPGGSLRLSCAASGFTFSSYAMSWVRQAPGKGLEWVSTINSGTYSPYYADSVKGRFTISRDNSKNTLYLQMNSLRAEDTAVYYCAKNFFDGSWFLDPPAMDYWGQGTLVTVSSHHHHHH ... true (1)
AS170036 VL1VH1-56Y98I (scFv, also called 02-AS170036 VL1VH1-56Y98I) scFv: QSALTQPRSVSGSPGQSVTISCAGTSSDVGSENYVSWYQQHPGKAPKLMIYQVNKRASGVPDRFSGSKSGNTASLTISGLQAEDEADYYCASYRSSDINIVFGGGTKLTVLGGGGSGGGGSGGGGSEVQLVESGGGLVQPGGSLRLSCAASGFTFSSYAMSWVRQAPGKGLEWVSTINSGTYSPYYADSVKGRFTISRDNSKNTLYLQMNSLRAEDTAVYYCAKNFFDGSWFLGPPAMDYWGQGTLVTVSSHHHHHH ... true (1)

Enquiry: // inclusive: Affinity increase at least 20 fold? input: AS170036 VL1VH1-57M108S (scFv, also called 30-AS170036 VL1VH1-57M108S) scFv: QSALTQPRSVSGSPGQSVTISCAGTSSDVGSENYVSWYQQHPGKAPKLMIYQVNKRASGVPDRFSGSKSGNTASLTISGLQAEDEADYYCASYRSSDHNIVFGGGTKLTVLGGGGSGGGGSGGGGSEVQLVESGGGLVQPGGSLRLSCAASGFTFSSYAMSWVRQAPGKGLEWVSTINSGTGMPYYADSVKGRFTISRDNSKNTLYLQMNSLRAEDTAVYYCAKNFFDGSWFLSPPAMDYWGQGTLVTVSSHHHHHH
Return: false (0)
